Target sequence: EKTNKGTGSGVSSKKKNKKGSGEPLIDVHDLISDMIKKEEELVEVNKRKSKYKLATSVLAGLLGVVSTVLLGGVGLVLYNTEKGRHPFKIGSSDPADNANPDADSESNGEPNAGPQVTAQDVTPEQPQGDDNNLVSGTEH
pIC50: −log10 of the molar value.
READOUT NAME: pIC50

CCN(CC)CCCC(C)Nc1ccnc2cc(Cl)ccc12 (stereo not shown) ... 7.71

The reported measurements were obtained from paper PMC5963095.
